System: OVCAR-3 ovarian
test_summary: NCI tumour cell line growth inhibition, 48 h
quantity_measured: TGI (µM)

{"compound": "Cc1cn2cc(-c3ccc4c(c3)CC(=O)N4)nc2s1", "comparison_operator": ">", "test_value": 100}
{"compound": "CC1=C(SCCC(=O)OC(C[Se]C2=C(C)C(=O)c3ccccc3C2=O)C(=O)NC(C)(C)C)C(=O)c2ccccc2C1=O (configuration not stated)", "comparison_operator": "=", "test_value": 2.74}
{"compound": "COc1cc([C@@H]2c3cc4c(cc3[C@@H](NCc3cccc(F)c3)C3COC(=O)[C@@H]32)OCO4)cc(OC)c1O (some centres not stated)", "comparison_operator": "=", "test_value": 30.5}
{"compound": "CCCCCCCCCCCCCCCCCCNc1nc(=O)n(C2CC(OP(=O)(O)OCC3OC(n4cc(F)c(=O)[nH]c4=O)CC3O)C(CO)O2)cc1F (configuration not stated)", "comparison_operator": ">", "test_value": 100}
{"compound": "O=C(N/N=C/c1ccc(N(CCCl)CCCl)cc1)c1ccc(C(=O)N/N=C/c2ccc(N(CCCl)CCCl)cc2)cc1", "comparison_operator": ">", "test_value": 100}
{"compound": "CC1=C(C(=O)NCc2ccccc2)C(c2ccco2)C(C(=O)NCc2ccccc2)=C(C)N1", "comparison_operator": ">", "test_value": 100}
{"compound": "Cc1ccsc1/C=N/Nc1cc(C)c2ccccc2n1", "comparison_operator": "=", "test_value": 26.6}
{"compound": "Cn1cc(-c2csc(-c3cn(C(=O)OC(C)(C)C)c4ccccc34)n2)c2cccnc21", "comparison_operator": "=", "test_value": 5.61}
{"compound": "CCOC(=O)N(O)c1ccc(/C=C/c2ccccc2)cc1", "comparison_operator": "=", "test_value": 15.7}
{"compound": "CCOP(=O)(Cc1nc(C#N)c(N)o1)OCC", "comparison_operator": ">", "test_value": 100}
{"compound": "Cc1ccc(C(=O)N/N=C(\\N=Nc2ccccc2C(=O)O)c2ccc(N(C)C)cc2)cc1", "comparison_operator": "=", "test_value": 99.3}
{"compound": "O=C(O)c1cccc(S(=O)(=O)NN2C(=O)CSC2c2c(O)ccc3ccccc23)c1 (configuration not stated)", "comparison_operator": "=", "test_value": 62.5}
{"compound": "CS(=O)(=O)CCNCc1ccoc1-c1ccc2ncnc(Nc3ccc(OCc4ccccc4)cc3)c2c1", "comparison_operator": ">", "test_value": 25}
{"compound": "ClC1=C(Cl)C2OC3C=CCC3OC2C(Cl)=C1Cl (configuration not stated)", "comparison_operator": ">", "test_value": 100}
{"compound": "NS(=O)(=O)c1ccc(NCc2nc3ccccc3[nH]2)cc1", "comparison_operator": ">", "test_value": 100}
{"compound": "NC(=O)c1nc(-c2ccc(Cl)c(Cl)c2)nc2ccccc12", "comparison_operator": ">", "test_value": 29.4}
{"compound": "CC1=NN2CCC(=O)N=C2S1", "comparison_operator": ">", "test_value": 100}
{"compound": "CN(C)Cc1cc(C(C)(C)C)cc(CN(C)C)c1O", "comparison_operator": ">", "test_value": 100}
{"compound": "Cc1c(C2CCSc3ccccc3N2)sc2ccccc12 (configuration not stated)", "comparison_operator": ">", "test_value": 100}
{"compound": "CC(C)=C=CP(=O)(O)c1ccccc1", "comparison_operator": ">", "test_value": 100}
{"compound": "O=C(/C=C/c1ccc(Cl)cc1Cl)c1ccc(Cl)cc1Cl", "comparison_operator": "=", "test_value": 48.1}
{"compound": "O=C(Cn1c(=O)oc2ccc(C(=O)c3cccc(Cl)c3)cc21)c1ccccc1", "comparison_operator": ">", "test_value": 100}
{"compound": "NC1=C(O)C(=O)C(c2c[nH]c3ccc(OCc4ccccc4)cc23)O1 (configuration not stated)", "comparison_operator": ">", "test_value": 100}
{"compound": "Cc1cc(O)c(C(C)C)cc1C(=S)Nc1ccc(Cl)cc1", "comparison_operator": "=", "test_value": 27.9}
{"compound": "C=CCO[C@H]1CC[C@@]2(C)C(CC[C@]3(C)C2CC=C2[C@@H]4[C@@H](C)C(C)CC[C@]4(C(=O)O)CCC23C)C1(C)C (some centres not stated)", "comparison_operator": "=", "test_value": 29.8}
{"compound": "Cc1cc(OCC(O)CO)ccc1Cl (configuration not stated)", "comparison_operator": ">", "test_value": 100}
{"compound": "CCCC(=O)OC(OC(=O)CCC)c1ccc([N+](=O)[O-])o1", "comparison_operator": "=", "test_value": 41.4}
{"compound": "C[C@@H]1Cc2c(ccc3[nH]ncc23)[C@@H](c2ccc(NC3CN(CCCF)C3)cn2)N1CC(F)(F)F", "comparison_operator": "=", "test_value": 57.8}
{"compound": "Cn1cccc1-c1cc(-c2ccccc2)nc(N)c1C#N", "comparison_operator": ">", "test_value": 100}
{"compound": "COc1ccc(C2=NN(c3nsc4ccccc34)C(=O)CC2)cc1", "comparison_operator": ">", "test_value": 100}
{"compound": "NC(=S)NS(=O)(=O)c1ccc(Cl)cc1", "comparison_operator": ">", "test_value": 100}
{"compound": "COc1ccc(C2C3=C(COC3=O)N(CCO)c3cc4c(cc32)CCC4)cc1 (configuration not stated)", "comparison_operator": "=", "test_value": 2.97}
{"compound": "O/N=C1\\C(=C\\c2ccc3c(c2)OCCO3)CCCC1C(NO)c1ccc2c(c1)OCCO2 (configuration not stated)", "comparison_operator": "=", "test_value": 39.6}
{"compound": "CC1C(c2ccccc2)NC(c2ccccc2)CC1(N)C#N (configuration not stated)", "comparison_operator": ">", "test_value": 100}
{"compound": "CCN(CC)CCNc1ccc([N+](=O)[O-])c2nc3ccc(OC)cc3c(N)c12", "comparison_operator": "=", "test_value": 3.55}
{"compound": "COc1ccc(/C=C/C(=O)c2ccc(Nc3nc(Nc4ccc(F)cc4)nc(Nc4ccc(F)cc4)n3)cc2)cc1", "comparison_operator": ">", "test_value": 100}
{"compound": "O=NNc1c[nH]c(=O)[nH]c1=O", "comparison_operator": ">", "test_value": 100}
{"compound": "CNC(=O)C1OC(n2cnc3c(NCc4cccc(I)c4)nc(Cl)nc32)C(O)C1O (configuration not stated)", "comparison_operator": "=", "test_value": 25.7}
{"compound": "CCOC(=O)C1=C(C)N(Cc2ccccc2)C2(O)C(OC)CC(=O)C3C(=O)N(c4ccccc4)C(=O)C132 (configuration not stated)", "comparison_operator": ">", "test_value": 100}
{"compound": "CCOC(=O)CN1C(=O)C(=O)N(c2ccc(OC)c3ccccc23)C1=O", "comparison_operator": ">", "test_value": 100}
{"compound": "C[C@@H](C[C@H](CCO)c1ccccc1)c1ccc2ccccc2c1", "comparison_operator": "=", "test_value": 2.91}
{"compound": "CC(C)(CO)CNc1cc(Cl)nc(N)n1", "comparison_operator": ">", "test_value": 100}
